measured_on: human PPARγ ligand-binding domain (Homo sapiens)
Construct: The kit uses the human-derived recombinant PPARγ LBD tagged with an N-terminal GST-tag; purchased Invitrogen
protocol_notes: PolarScreen PPARγ-Competitor fluorescence polarization ligand binding assay
measurement_parameters: read-out: IC50
assay_endpoint: IC50

Solved entries (count: 3):
Reported IC50 (human PPARγ ligand-binding domain (Homo sapiens)) for entry Oc1c(F)cc(F)cc1F [2,4,6-TFP, 2,4,6-trifluorophenol] is > 250 µM

Reported IC50 (human PPARγ ligand-binding domain (Homo sapiens)) for entry Oc1c(Br)ccc(Oc2ccc(Br)cc2Br)c1Br [3-OH-BDE-47] is 0.24 µM

Reported IC50 (human PPARγ ligand-binding domain (Homo sapiens)) for entry CC(C)(c1cc(Cl)c(O)c(Cl)c1)c1cc(Cl)c(O)c(Cl)c1 [TCBPA, 3,3´,5,5´-tetrachlorobisphenol A] is 5.18 µM

Provide reported IC50 for each item, in the same order as listed.
1. Brc1ccc(Oc2cc(Br)c(Br)cc2Br)c(Br)c1 [BDE–99, 2,2´,4,4´,5-pentabromodiphenyl ether]
2. Oc1cc(Oc2ccc(Br)cc2Br)c(Br)cc1Br [5-OH-BDE-47]

1: > 250 µM; 2: 3.09 µM

###

measured_on: human PPARγ ligand-binding domain (Homo sapiens, UniProt P37231)
Construct: The kit uses the human-derived recombinant PPARγ LBD tagged with an N-terminal GST-tag; purchased Invitrogen
Sequence (P37231 238-503 limits assumed): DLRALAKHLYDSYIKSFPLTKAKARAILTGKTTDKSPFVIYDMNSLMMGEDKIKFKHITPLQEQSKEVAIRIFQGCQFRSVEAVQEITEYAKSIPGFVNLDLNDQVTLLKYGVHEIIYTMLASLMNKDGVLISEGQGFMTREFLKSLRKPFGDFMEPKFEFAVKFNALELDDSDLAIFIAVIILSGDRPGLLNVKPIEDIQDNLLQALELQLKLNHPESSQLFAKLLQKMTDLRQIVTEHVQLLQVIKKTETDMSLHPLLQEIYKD
protocol_notes: PolarScreen PPARγ-Competitor fluorescence polarization ligand binding assay
For each of the molecules below, state its Kd.
One number for each entry, in µM.

Provide reported Kd for each item, in the same order as listed.
1. Oc1c(Br)cc(Br)cc1Br
2. Oc1cc(Cl)ccc1Oc1ccc(Cl)cc1Cl
3. O=P(O)(Oc1ccccc1)Oc1ccccc1 [DPP, diphenyl phosphate]
4. CCCCOCCOP(=O)(OCCOCCCC)OCCOCCCC [TBEP, tris(2-butoxyethyl) phosphate]
5. Oc1c(I)cc(I)cc1I
6. O=C(O)c1cc(Br)c(Br)c(Br)c1Br
7. O=P(Oc1ccccc1)(Oc1ccccc1)Oc1ccccc1 [TPP, triphenyl phosphate]

18.9
6.52
327
53.7
0.96
22.1
20.9

###

measured_on: human PPARγ ligand-binding domain (Homo sapiens, UniProt P37231)
Construct: The kit uses the human-derived recombinant PPARγ LBD tagged with an N-terminal GST-tag; purchased Invitrogen
protocol_notes: PolarScreen PPARγ-Competitor fluorescence polarization ligand binding assay
For each of the compounds below, state its pIC50.
Numbers only, as −log10 of the molar value.

Solved entries (count: 5):
Reported pIC50 (human PPARγ ligand-binding domain (Homo sapiens, UniProt P37231)) for entry Oc1c(I)cc(I)cc1I is 5.74

Reported pIC50 (human PPARγ ligand-binding domain (Homo sapiens, UniProt P37231)) for entry Oc1c(Br)cc(Br)cc1Br is 4.44

Reported pIC50 (human PPARγ ligand-binding domain (Homo sapiens, UniProt P37231)) for entry Oc1cc(Cl)ccc1Oc1ccc(Cl)cc1Cl is 4.90

Reported pIC50 (human PPARγ ligand-binding domain (Homo sapiens, UniProt P37231)) for entry CCCCOCCOP(=O)(OCCOCCCC)OCCOCCCC [TBEP, tris(2-butoxyethyl) phosphate] is 3.99

Reported pIC50 (human PPARγ ligand-binding domain (Homo sapiens, UniProt P37231)) for entry O=P(O)(Oc1ccccc1)Oc1ccccc1 [DPP, diphenyl phosphate] is 3.20

Provide reported pIC50 for each item, in the same order as listed.
1. O=C(O)c1cc(Br)c(Br)c(Br)c1Br
2. O=P(Oc1ccccc1)(Oc1ccccc1)Oc1ccccc1 [TPP, triphenyl phosphate]

1: 4.38; 2: 4.40
